# System: Human immunodeficiency virus 1
# procedure.summary: Antiviral activity against HIV1 3B infected in human MT4 cells assessed as virus-induced cytopathic effect by MTT assay
# Type: functional, organism-based
# test.context: Human immunodeficiency virus 1, 3B
# note: boundary value 2 µM maps to Not fulfilled; EC50 below it maps to Fulfilled

{"smi": "COc1ccc(-n2ccnc2SCC(=O)Nc2ccccc2F)cc1", "tested.on": "Human immunodeficiency virus 1", "category": "Not fulfilled"}
{"smi": "Cc1ccc(-n2ccnc2SCC(=O)Nc2ccccc2C)cc1", "tested.on": "Human immunodeficiency virus 1", "category": "Not fulfilled"}
{"smi": "COc1ccc(-n2ccnc2SCC(=O)Nc2ccccc2Cl)cc1", "tested.on": "Human immunodeficiency virus 1", "category": "Not fulfilled"}
{"smi": "O=C(CSc1nccn1-c1ccc(Cl)cc1)Nc1ccccc1[N+](=O)[O-]", "tested.on": "Human immunodeficiency virus 1", "category": "Not fulfilled"}
{"smi": "Cc1ccc(-n2ccnc2SCC(=O)Nc2ccccc2Br)cc1", "tested.on": "Human immunodeficiency virus 1", "category": "Not fulfilled"}
{"smi": "O=C(CSc1nccn1-c1cccc2ccccc12)Nc1ccccc1[N+](=O)[O-]", "tested.on": "Human immunodeficiency virus 1", "category": "Fulfilled"}
{"smi": "Cc1ccc(-n2ccnc2SCC(=O)Nc2ccccc2Cl)cc1", "tested.on": "Human immunodeficiency virus 1", "category": "Not fulfilled"}
{"smi": "O=C(CSc1nccn1-c1ccc(Cl)cc1)Nc1ccccc1Cl", "tested.on": "Human immunodeficiency virus 1", "category": "Not fulfilled"}
{"smi": "O=C(CSc1nccn1-c1cccc2ccccc12)Nc1ccccc1F", "tested.on": "Human immunodeficiency virus 1", "category": "Fulfilled"}
{"smi": "O=C(CSc1nccn1-c1cccc2ccccc12)Nc1ccccc1Cl", "tested.on": "Human immunodeficiency virus 1", "category": "Fulfilled"}
{"smi": "O=C(CSc1nccn1-c1ccc(Cl)cc1)Nc1ccccc1F", "tested.on": "Human immunodeficiency virus 1", "category": "Not fulfilled"}
{"smi": "Cc1ccccc1NC(=O)CSc1nccn1-c1cccc2ccccc12", "tested.on": "Human immunodeficiency virus 1", "category": "Not fulfilled"}
{"smi": "COc1ccc(-n2ccnc2SCC(=O)Nc2ccccc2Br)cc1", "tested.on": "Human immunodeficiency virus 1", "category": "Not fulfilled"}
{"smi": "COc1ccc(-n2ccnc2SCC(=O)Nc2ccccc2C)cc1", "tested.on": "Human immunodeficiency virus 1", "category": "Not fulfilled"}
{"smi": "Cc1ccccc1NC(=O)CSc1nccn1-c1ccc(Cl)cc1", "tested.on": "Human immunodeficiency virus 1", "category": "Not fulfilled"}
{"smi": "COc1ccc(-n2ccnc2SCC(=O)Nc2ccc(C)cc2Br)cc1", "tested.on": "Human immunodeficiency virus 1", "category": "Not fulfilled"}
{"smi": "Cc1ccc(-n2ccnc2SCC(=O)Nc2ccccc2[N+](=O)[O-])cc1", "tested.on": "Human immunodeficiency virus 1", "category": "Fulfilled"}
{"smi": "O=C(CSc1nccn1-c1cccc2ccccc12)Nc1ccccc1Br", "tested.on": "Human immunodeficiency virus 1", "category": "Fulfilled"}
{"smi": "Cc1ccc(NC(=O)CSc2nccn2-c2cccc3ccccc23)c(Br)c1", "tested.on": "Human immunodeficiency virus 1", "category": "Fulfilled"}
{"smi": "O=C(CSc1nccn1-c1ccc(Cl)cc1)Nc1ccccc1Br", "tested.on": "Human immunodeficiency virus 1", "category": "Not fulfilled"}
{"smi": "COc1ccc(-n2ccnc2SCC(=O)Nc2ccccc2[N+](=O)[O-])cc1", "tested.on": "Human immunodeficiency virus 1", "category": "Not fulfilled"}
{"smi": "Cc1ccc(-n2ccnc2SCC(=O)Nc2ccc(C)cc2Br)cc1", "tested.on": "Human immunodeficiency virus 1", "category": "Not fulfilled"}
{"smi": "Cc1ccc(NC(=O)CSc2nccn2-c2ccc(Cl)cc2)c(Br)c1", "tested.on": "Human immunodeficiency virus 1", "category": "Not fulfilled"}
{"smi": "Cc1ccc(-n2ccnc2SCC(=O)Nc2ccccc2F)cc1", "tested.on": "Human immunodeficiency virus 1", "category": "Not fulfilled"}

###

# procedure.summary: Selectivity index, ratio of CC50 for human MT4 cells to EC50 for HIV2 ROD
# Type: toxicity, cell-based
# test.context: mt4
measured.endpoint: Ratio CC50/EC50

{"smi": "O=C(CSc1nccn1-c1ccc(Cl)cc1)Nc1ccccc1Br", "test.value": "Not Active"}
{"smi": "O=C(CSc1nccn1-c1ccc(Cl)cc1)Nc1ccccc1[N+](=O)[O-]", "test.value": "Not Active"}
{"smi": "O=C(CSc1nccn1-c1ccc(Cl)cc1)Nc1ccccc1Cl", "test.value": "Not Active"}
{"smi": "COc1ccc(-n2ccnc2SCC(=O)Nc2ccccc2Br)cc1", "test.value": "Not Active"}
{"smi": "COc1ccc(-n2ccnc2SCC(=O)Nc2ccccc2C)cc1", "test.value": "Not Active"}
{"smi": "COc1ccc(-n2ccnc2SCC(=O)Nc2ccccc2Cl)cc1", "test.value": "Not Active"}
{"smi": "COc1ccc(-n2ccnc2SCC(=O)Nc2ccccc2F)cc1", "test.value": "Not Active"}
{"smi": "O=C(CSc1nccn1-c1ccc(Cl)cc1)Nc1ccccc1F", "test.value": "Not Active"}

###

# procedure.summary: Cytotoxicity against human MT4 cells by MTT assay
# Assay type: cell-based
measured.endpoint: CC50 (µM)

{"molecule": "Cc1ccccc1NC(=O)CSc1nccn1-c1ccc(Cl)cc1", "measured.endpoint": "CC50", "result.units": "µM", "prefix.operator": "=", "test.value": 160}
{"molecule": "O=C1Nc2ccc(Cl)cc2[C@@](C#CC2CC2)(C(F)(F)F)O1 [EFAVIRENZ]", "measured.endpoint": "CC50", "result.units": "µM", "prefix.operator": ">", "test.value": 6.34}
{"molecule": "CC(C)Nc1cccnc1N1CCN(C(=O)c2cc3cc(NS(C)(=O)=O)ccc3[nH]2)CC1 [DELAVIRDINE]", "measured.endpoint": "CC50", "result.units": "µM", "prefix.operator": ">", "test.value": 3.83}
{"molecule": "Cc1ccc(-n2ccnc2SCC(=O)Nc2ccccc2Cl)cc1", "measured.endpoint": "CC50", "result.units": "µM", "prefix.operator": "=", "test.value": 33.7}
{"molecule": "O=C(CSc1nccn1-c1ccc(Cl)cc1)Nc1ccccc1F", "measured.endpoint": "CC50", "result.units": "µM", "prefix.operator": ">", "test.value": 345}
{"molecule": "Cc1cn([C@H]2C[C@H](N=[N+]=[N-])[C@@H](CO)O2)c(=O)[nH]c1=O [ZIDOVUDINE]", "measured.endpoint": "CC50", "result.units": "µM", "prefix.operator": ">", "test.value": 93.5}
{"molecule": "Cc1ccnc2c1NC(=O)c1cccnc1N2C1CC1 [NEVIRAPINE]", "measured.endpoint": "CC50", "result.units": "µM", "prefix.operator": ">", "test.value": 15}
{"molecule": "O=C(CSc1nccn1-c1cccc2ccccc12)Nc1ccccc1F", "measured.endpoint": "CC50", "result.units": "µM", "prefix.operator": "=", "test.value": 34.7}
{"molecule": "Cc1ccc(-n2ccnc2SCC(=O)Nc2ccccc2C)cc1", "measured.endpoint": "CC50", "result.units": "µM", "prefix.operator": "=", "test.value": 147}
{"molecule": "Cc1ccc(NC(=O)CSc2nccn2-c2cccc3ccccc23)c(Br)c1", "measured.endpoint": "CC50", "result.units": "µM", "prefix.operator": "=", "test.value": 29.4}
{"molecule": "O=C(CSc1nccn1-c1ccc(Cl)cc1)Nc1ccccc1[N+](=O)[O-]", "measured.endpoint": "CC50", "result.units": "µM", "prefix.operator": ">", "test.value": 321}

###

# procedure.summary: Selectivity index, ratio of CC50 for human MT4 cells to EC50 for HIV1 3B
# Type: toxicity, cell-based
# test.context: MT4 cells, read-out: Ratio CC50/EC50
measured.endpoint: selectivity ratio

{"smi": "O=C(CSc1nccn1-c1cccc2ccccc12)Nc1ccccc1Cl", "measured.endpoint": "selectivity ratio", "test.value": 170}
{"smi": "O=C(CSc1nccn1-c1ccc(Cl)cc1)Nc1ccccc1[N+](=O)[O-]", "measured.endpoint": "selectivity ratio", "test.value": "> 66"}
{"smi": "Cc1ccccc1NC(=O)CSc1nccn1-c1ccc(Cl)cc1", "measured.endpoint": "selectivity ratio", "test.value": 5}

###

# procedure.summary: Cytotoxicity against human MT4 cells by MTT assay
# Type: cell-based
measured.endpoint: CC50 (µM)

{"smi": "Cc1ccc(-n2ccnc2SCC(=O)Nc2ccc(C)cc2Br)cc1", "result.units": "µM", "prefix.operator": "=", "test.value": 80.8}
{"smi": "COc1ccc(-n2ccnc2SCC(=O)Nc2ccccc2F)cc1", "result.units": "µM", "prefix.operator": "≥", "test.value": 42}
{"smi": "Cc1ccccc1NC(=O)CSc1nccn1-c1cccc2ccccc12", "result.units": "µM", "prefix.operator": "=", "test.value": 34.6}
{"smi": "Cc1ccc(-n2ccnc2SCC(=O)Nc2ccccc2F)cc1", "result.units": "µM", "prefix.operator": "=", "test.value": 37.9}
{"smi": "COc1ccc(-n2ccnc2SCC(=O)Nc2ccccc2[N+](=O)[O-])cc1", "result.units": "µM", "prefix.operator": "=", "test.value": 161}
{"smi": "O=C(CSc1nccn1-c1cccc2ccccc12)Nc1ccccc1Br", "result.units": "µM", "prefix.operator": "=", "test.value": 30.5}
{"smi": "O=C(CSc1nccn1-c1ccc(Cl)cc1)Nc1ccccc1Br", "result.units": "µM", "prefix.operator": ">", "test.value": 300}
{"smi": "COc1ccc(-n2ccnc2SCC(=O)Nc2ccccc2C)cc1", "result.units": "µM", "prefix.operator": ">", "test.value": 354}
{"smi": "COc1ccc(-n2ccnc2SCC(=O)Nc2ccccc2Br)cc1", "result.units": "µM", "prefix.operator": ">", "test.value": 299}
{"smi": "COc1ccc(-n2ccnc2SCC(=O)Nc2ccc(C)cc2Br)cc1", "result.units": "µM", "prefix.operator": "=", "test.value": 25.8}
{"smi": "O=C(CSc1nccn1-c1cccc2ccccc12)Nc1ccccc1Cl", "result.units": "µM", "prefix.operator": "=", "test.value": 35.2}
